- assay_conditions: Ebola virus entry assay, green fluorescence channel
Entries with a potency or affinity are not part of this list. Activity calls are given as the source filed them. How the calls were made is not given here.
value_type: efficacy

CN(C)CCOC(c1ccc(Cl)cc1)c1ccccn1 (stereo unspecified) | 34.3% (inactive)
CN1CCC(=C2c3ccccc3C=Cc3ccccc32)CC1 | 67.2% (inactive)
CCOC(=O)[C@H](CCc1ccccc1)N[C@@H](C)C(=O)N1[C@H](C(=O)O)C[C@@H]2CCC[C@@H]21 | -29.2% (inactive)
Cc1[nH]cnc1CN1CCc2c(c3ccccc3n2C)C1=O | -10.6% (inactive)
Cc1cccc(C)c1OCC(C)N (stereo unspecified) | -20.8% (inactive)
N[C@@H](Cc1cc(I)c(Oc2cc(I)c(O)c(I)c2)c(I)c1)C(=O)O | -10% (inactive)
CCOC(=O)c1ncn2c1CN(C)C(=O)c1cc(F)ccc1-2 | -22.5% (inactive)
COc1ccccc1OCC(O)CN1CCN(CC(=O)Nc2c(C)cccc2C)CC1 (stereo unspecified) | 29.5% (inactive)
CN1CC(=O)N/C1=N/C(=O)Nc1cccc(Cl)c1 | -15.3% (inactive)
C#CCOC(C(=O)OCCN(C)C)(c1ccccc1)c1ccccc1 | 46% (inactive)

Consider the record given below.
Quickly give me recorded efficacy for COC(=O)C1=C(C)NC(C)=C(C(=O)OC(C)C)C1c1cccc2nonc12 (stereo unspecified) -20.5% (inactive)

====

- Test system: GB4
- measurement_notes: qHTS profiling for inhibitors of Plasmodium falciparum proliferation (AID 504749); further: nearly all actives have a fitted effect of over 60% in size
- assay_conditions: P. falciparum in erythrocytes, SYBR Green DNA, 72 h; series mostly up to 28.7 µM
Inconclusive results are not listed. Calls of active or inactive are those of the source. Calls come from the whole dose curve; as a rule, active = well fitted inhibition curve with a large enough effect; inconclusive = small, poorly fitted or top-dose-only effect; inactive = flat fitted curve, though single readings scatter.
Write down the outcome that applies. Available outcomes: active, inactive

Nc1ccncc1 | inactive
CCC1(C2=NCCN2)Cc2ccccc2O1 (stereo not given) | active
CC(C)(N)Cc1ccc(Cl)cc1 | active
O=C1NCN(c2ccccc2)C12CCN(CC1COc3ccccc3O1)CC2 (stereo not given) | inactive
Clc1ccc(COC(Cn2ccnc2)c2ccc(Cl)cc2Cl)cc1 (stereo not given) | active
NN=C(N)N | inactive

Next, consider the following compound.
// param item: `Oc1ccccc1-c1ccccc1` ; yields the recorded call inactive

====

- measurement_notes: qHTS profiling of the MIPE4 collection as inhibitors of Plasmodium falciparum (HB3) proliferation (AID 743347);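 further: plate controls were DMSO vehicle wells for no effect and artemisinin wells for full effect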
- assay_conditions: P. falciparum HB3 in erythrocytes, SYBR Green DNA, 72 h; at 28.5 µM (top of the series) unless noted
value_type: growth, % of control

Some entries whose results are on file:
C[C@@H]1[C@@H](C(=O)C[C@H]2O[C@@H]3O[C@]4(C)CC[C@@H]5[C@H](C)CC[C@@H]([C@H]2C)[C@@]35OO4)O[C@@H]2O[C@]3(C)CC[C@H]4[C@H](C)CC[C@@H]1[C@@]24OO3 | 29.5%
O=P1(NCCCl)OCCCN1CCCl (centres undefined) | 107%
CC(O)(CS(=O)(=O)c1ccc(F)cc1)C(=O)Nc1ccc(C#N)c(C(F)(F)F)c1 (centres undefined) | 81.9%

# map each molecule to its growth, % of control
1. CCn1cc(C(=O)O)c(=O)c2cc(F)c(N3CCNCC3)cc21
2. COc1ccc2c(c1OC)CN1CCc3cc4c(cc3C1C2)OCO4 (centres undefined)
3. O=NN(CCCl)C(=O)NC1CCCCC1

1: 82.1%; 2: 7.61%; 3: 74.9%
